- System: A673 NR0B1-luciferase reporter, viability-normalised luminescence
- PROCEDURE TEXT: suppressors of NR0B1-promoter luciferase reporter, dose response, EWS/Fli inhibitor project, luciferase luminescence, A673 cells, cherry-pick (AID 686920)
Kindly supply the reported AC35 values for the records listed here.

// known answers, use as guide
MOLECULE: N#C[C@H]1[C@H](c2ccc(C#Cc3ccccc3F)cc2)[C@@H](CO)N1C(=O)C1CCCCC1
MEASURED TARGET: A673 NR0B1-luciferase reporter, viability-normalised luminescence
REPORTED VALUE: 19.5 µM
//
MOLECULE: OCC1OC(n2ccc3c2ncn2ncnc32)C(O)C1O (stereo not given)
MEASURED TARGET: A673 NR0B1-luciferase reporter, viability-normalised luminescence
REPORTED VALUE: 1.01 µM

Can you give me AC35 for all of these, one by one?
1. CCCCC[C@H](C)N1C[C@H](COCc2ccccc2)Oc2cc(N3CC[C@@H](N(C)C)C3)ccc2S1(=O)=O
2. COc1ccc(/C=C2\SC(=S)N(CCCC(=O)NC3CCCC3)C2=O)cc1OC
3. NC(Cc1ccc(C(F)(F)F)cc1)c1csc(NC(=O)Nc2ccccc2Cc2ccccc2)n1 (stereo not given)

["34.7 µM", "38.5 µM", "17.6 µM"]

----------
- Tested on: A673 NR0B1-luciferase reporter, viability-normalised luminescence
- PROCEDURE TEXT: suppressors of NR0B1-promoter luciferase reporter, dose response, EWS/Fli inhibitor project, luciferase luminescence, A673 cells, cherry-pick (AID 686920)
Calls of active or inactive are those of the source.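 Rule for the calls: active = fitted curve reaching 35% inhibition at a dose no higher than twice the top valid tested dose; inconclusive = flat fit with 30 to 70% inhibition, or a poor fit; inactive = the rest, including activity in the opposite direction.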
Hi! Could you answer with just one of these? true (1) (active), false (0) (inactive)

Below, 4 compounds whose answers are already recorded.
COMPOUND: CC(=O)c1ccc(N=C2C(=O)Nc3ccccc32)cc1
CLASSIFICATION: true (1)
//
COMPOUND: C[C@@H]1CN([C@@H](C)CO)C(=O)c2cc(N(C)C)ccc2O[C@H]1CN(C)Cc1ccc(C(=O)Nc2ccccc2N)cc1
CLASSIFICATION: true (1)
//
COMPOUND: CCOc1ccc(-c2noc(CCC(=O)O)n2)cc1
CLASSIFICATION: true (1)
//
COMPOUND: CN(C)C(=O)c1cccc(-c2ccc(C3[C@@H]4CN(Cc5nccs5)C[C@H]3N4)cc2)c1 (stereo not given in full)
CLASSIFICATION: false (0)

Attention now turns to another entry.
What outcome does the record of this test show for CCCCCCCCn1c2c(c(=N)c3c1CCC3)CCCC2 ?
true (1)

----------
- Test system: A673 NR0B1-luciferase reporter, viability-normalised luminescence
- PROCEDURE TEXT: suppressors of NR0B1-promoter luciferase reporter, dose response, EWS/Fli inhibitor project, luciferase luminescence, A673 cells, cherry-pick (AID 686920)
OUTCOME MEASURE: AC35

COMPOUND: CN1C/C(=C/c2ccsc2)C(=O)/C(=C/c2ccsc2)C1
MEASURED TARGET: A673 NR0B1-luciferase reporter, viability-normalised luminescence
AC35: 9.82 µM

COMPOUND: Cc1cccc(N2CCN(C3C(=O)Nc4ccccc4-n4nnnc43)CC2)c1C (stereo unspecified)
MEASURED TARGET: A673 NR0B1-luciferase reporter, viability-normalised luminescence
AC35: 9.29 µM

Can you give me AC35 for all of these, one by one?
1. CC1=NC(=O)C(N=Nc2cccc(C(=O)O)c2)N1c1ccccc1 (stereo unspecified)
2. C[C@H]1CN([C@@H](C)CO)S(=O)(=O)c2ccc(C#CC(C)(C)O)cc2O[C@@H]1CN(C)Cc1ccc(-c2ccccc2)cc1
3. Nc1nc(N)c2cc(Sc3ccc4ccccc4c3)ccc2n1
4. Cc1c(Cl)cnc(NC(=O)COC(=O)c2ccc3ncsc3c2)c1Cl
5. CCOc1ccc2nc(NC3=NC(c4ccc(OC)cc4)CC(=O)N3)nc(C)c2c1 (stereo unspecified)
6. COc1ccc(CN(C)C[C@H]2Oc3ccc(NC(=O)CCCCCC(=O)Nc4ccccc4N)cc3CC(=O)N([C@H](C)CO)C[C@H]2C)cc1
7. C[C@@H]1CN([C@H](C)CO)C(=O)c2cc(NC(=O)Nc3ccccc3)ccc2O[C@@H]1CN(C)Cc1ccc(C(=O)Nc2ccccc2N)cc1
8. OC[C@H]1[C@@H](c2ccc(C#CC3CCCC3)cc2)[C@@H]2CN(CCC(F)(F)F)CCCCN12

1. 6.99 µM
2. 1.09 µM
3. 2.1 µM
4. 7.23 µM
5. 9.3 µM
6. 15.4 µM
7. 8.74 µM
8. 9.24 µM
